- method.summary: Cytotoxicity in mock-infected MT-4 cells
- test.parameters: human
Lab note: anything with CC50 at 5 days below 30 µM is marked y; values at 30 µM or higher are marked n.

Use the examples below as a reference point.
compound	group
Cc1cc(C#N)cc(C)c1Oc1nc(NC2CCN(Cc3ccc(P(C)(C)=O)cc3)CC2)nc2ccsc12	n
Cc1cc(C#N)cc(C)c1Oc1nc(NC2CCN(Cc3ccc(P(=O)(OC(C)C)OC(C)C)cc3)CC2)nc2ccsc12	n
Cc1cc(/C=C/C#N)cc(C)c1Oc1nc(NC2CCN(Cc3ccc(P(=O)(OC(C)(C)C)OC(C)(C)C)cc3)CC2)nc2ccsc12 [15g]	y

Exam item: Here's an entry: Cc1cc(/C=C/C#N)cc(C)c1Oc1nc(NC2CCN(Cc3ccc(P(=O)(OCC(F)(F)F)OCC(F)(F)F)cc3)CC2)nc2ccsc12 [15e] . Is its CC50 at 5 days below 30 µM?
Marked response: y

Exam item: Strictly below 30 µM in CC50 at 5 days? `Cc1cc(C#N)cc(C)c1Oc1nc(NC2CCN(Cc3ccc(P(=O)(OCC(F)(F)F)OCC(F)(F)F)cc3)CC2)nc2ccsc12`
Marked response: y

Exam item: Identify whether the compound `Cc1cc(C#N)cc(C)c1Oc1nc(NC2CCN(Cc3ccc(P(=O)(O)O)cc3)CC2)nc2ccsc12` records CC50 at 5 days below 30 µM.
Marked response: n

Exam item: Please state whether CC50 at 5 days is below 30 µM for Cc1cc(/C=C/C#N)cc(C)c1Oc1nc(NC2CCN(Cc3ccc(P(=O)(OCC(C)C)OCC(C)C)cc3)CC2)nc2ccsc12 [15h]
Marked response: y

Exam item: State whether 30 µM exceeds CC50 at 5 days recorded for `CCCCOP(=O)(OCCCC)c1ccc(CN2CCC(Nc3nc(Oc4c(C)cc(C#N)cc4C)c4sccc4n3)CC2)cc1` .
Marked response: y

Exam item: Does `Cc1cc(C#N)cc(C)c1Oc1nc(NC2CCN(Cc3ccc(P(=O)(OC(C)(C)C)OC(C)(C)C)cc3)CC2)nc2ccsc12` have CC50 at 5 days strictly under 30 µM?
Marked response: y

Exam item: Field: below-cutoff. Rule: recorded CC50 at 5 days strictly less than 30 µM. Subject: `Cc1cc(/C=C/C#N)cc(C)c1Oc1nc(NC2CCN(Cc3ccc(P(=O)(O)O)cc3)CC2)nc2ccsc12`
Marked response: n

Exam item: For this compound, is CC50 at 5 days lower than 30 µM? `COP(=O)(OC)c1ccc(CN2CCC(Nc3nc(Oc4c(C)cc(C#N)cc4C)c4sccc4n3)CC2)cc1`
Marked response: n

Exam item: CC50 at 5 days strictly < 30 µM for this compound? CCOP(=O)(OCC)c1ccc(CN2CCC(Nc3nc(Oc4c(C)cc(/C=C/C#N)cc4C)c4sccc4n3)CC2)cc1 [15c]
Marked response: y
